- System: BDF1 mice, B16 melanoma ip, median survival T/C
- TEST PROTOCOL: NCI In Vivo Anticancer Drug Screen. Data for tumor model B16 Melanoma (intraperitoneal) in B6D2F1 (BDF1) mice
- CONDITION DESCRIPTION: endpoint: median survival time; dose: 4.0 mg/kg/injection; schedule: Q01DX009 (ip); vehicle: saline
Inconclusive results and toxic doses are left out. Rule for the calls: active = survival T/C of 150% or more; inactive = T/C below 125% in these data.
# valid calls are y for active, n for inactive; nothing else

Field: example entries. Status: answers known.
CC(C)n1c2c([n+](C)c1/C=C/c1ccccc1)C(=O)c1ccccc1C2=O; n
CCC[P+](c1ccccc1)(c1ccccc1)c1ccccc1; n
O=C(O)C1(C(=O)O)CCC1.[NH2-].[NH2-].[Pt+2]; n
COc1cc([C@@H]2c3cc4c(cc3[C@H](O)[C@H]3COC(=O)[C@H]23)OCO4)cc(OC)c1OC; n
COc1cc([C@@H]2c3cc4c(cc3[C@@H](OC3OC5CO[C@@H](c6cccs6)OC5C(O)C3O)[C@H]3COC(=O)[C@H]23)OCO4)cc(OC)c1O (stereo partly specified); y

Proceed to the following item.
Inquiry: What did the test return for CC(C)C[CH2][Pb]([Cl])([CH2]CC(C)C)[CH2]CC(C)C ?
Reply text: n
